Attribution: patent US20250213701A1

# Test system: PC-3 cells
# test-details: Anti-proliferative toxicity against prostate cancer cell line PC-3 (CCK8)
# Type: cell-based, human
# condition-details: Homo sapiens, 72 h, 3 days
// reported IC50 per item

Solved cases (2 shown):
compound: C[C@]12C=CC(=O)N[C@@H]1CC[C@@H]1[C@@H]2CC[C@]2(C)[C@@H](C(=O)Nc3ccc(OCCCCCCCNc4ccc5c(c4)C(=O)N(C4CCC(=O)NC4=O)C5=O)cc3)CC[C@@H]12 (stereo partly shown) [C24]
IC50: > 1 µM
//
compound: C[C@]12C=CC(=O)N[C@@H]1CC[C@@H]1[C@@H]2CC[C@]2(C)[C@@H](C(=O)Nc3cccc(N[C@@H]4CCC[C@@H](Nc5cccc6c5CN([C@@H]5CCC(=O)NC5=O)C6=O)C4)c3)CC[C@@H]12 [C66]
IC50: > 1 µM

Measured IC50 of C[C@]12C=CC(=O)N[C@@H]1CC[C@@H]1[C@@H]2CC[C@]2(C)[C@@H](C(=O)Nc3ccc(OCCNc4ccc5c(c4)C(=O)N(C4CCC(=O)NC4=O)C5=O)cc3)CC[C@@H]12 (stereo partly shown) [C16] : > 1 µM

Measured IC50 of C[C@]12C=CC(=O)N[C@@H]1CC[C@@H]1[C@@H]2CC[C@]2(C)[C@@H](C(=O)Nc3cccc(NC4CCCC(Nc5cccc6c5C(=O)N(C5CCC(=O)NC5=O)C6=O)C4)c3)CC[C@@H]12 (stereo partly shown) [C58] : 0.01 to 1 µM

###

# Test system: PC-3 cells
# test-details: Anti-proliferative toxicity against prostate cancer cell line PC-3 (CCK8)
# Assay type: cell-based, human
# condition-details: Homo sapiens, 72 h, 3 days
// reported IC50 per item

compound: C[C@]12C=CC(=O)N[C@@H]1CC[C@@H]1[C@@H]2CC[C@]2(C)[C@@H](C(=O)Nc3cccc(OCC4CCN(c5cccc6c5C(=O)N(C5CCC(=O)NC5=O)C6=O)CC4)c3)CC[C@@H]12 (some centres unmarked)
IC50: > 1000 nM

We next turn to a different compound, shown below.
Measured IC50 of C[C@]12C=CC(=O)N[C@@H]1CC[C@@H]1[C@@H]2CC[C@]2(C)[C@@H](C(=O)Nc3cccc(N[C@@H]4CCC[C@@H](Nc5cccc6c5CN(C5CCC(=O)NC5=O)C6=O)C4)c3)CC[C@@H]12 (some centres unmarked) : > 1000 nM

###

# Test system: VCaP cells
# test-details: Anti-proliferative toxicity against prostate cancer cell line Vcap (CCK8)
# Type: cell-based, human
# condition-details: Homo sapiens, 72 h, 3 days, CCK8
pIC50: −log10 of the molar value.
measurement-label: pIC50

Solved cases (4 shown):
molecule: C[C@]12C=CC(=O)N[C@@H]1CC[C@@H]1[C@@H]2CC[C@]2(C)[C@@H](C(=O)NCCCCNc3ccc4c(c3)C(=O)N(C3CCC(=O)NC3=O)C4=O)CC[C@@H]12 (stereo partly drawn) [C6]
test-value: < 6.00
//
molecule: C[C@]12C=CC(=O)N[C@@H]1CC[C@@H]1[C@@H]2CC[C@]2(C)[C@@H](C(=O)Nc3cccc(OCCCCCCCCNc4ccc5c(c4)C(=O)N(C4CCC(=O)NC4=O)C5=O)c3)CC[C@@H]12 (stereo partly drawn) [C40]
test-value: 6.00 to 8.00
//
molecule: C[C@]12C=CC(=O)N[C@@H]1CC[C@@H]1[C@@H]2CC[C@]2(C)[C@@H](C(=O)Nc3ccc(OCCCNc4ccc5c(c4)C(=O)N(C4CCC(=O)NC4=O)C5=O)cc3)CC[C@@H]12 (stereo partly drawn) [C18]
test-value: < 6.00
//
molecule: C[C@]12C=CC(=O)N[C@@H]1CC[C@@H]1[C@@H]2CC[C@]2(C)[C@@H](C(=O)Nc3ccc(OCCNc4ccc5c(c4)C(=O)N(C4CCC(=O)NC4=O)C5=O)cc3)CC[C@@H]12 (stereo partly drawn) [C16]
test-value: < 6.00

Measured pIC50 of C[C@]12C=CC(=O)N[C@@H]1CC[C@@H]1[C@@H]2CC[C@]2(C)[C@@H](C(=O)NCCCCCCCNc3cccc4c3C(=O)N(C3CCC(=O)NC3=O)C4=O)CC[C@@H]12 (stereo partly drawn) [C11] : < 6.00

Measured pIC50 of C[C@]12C=CC(=O)N[C@@H]1CC[C@@H]1[C@@H]2CC[C@]2(C)[C@@H](C(=O)Nc3ccc(OCCCNc4cccc5c4C(=O)N(C4CCC(=O)NC4=O)C5=O)cc3)CC[C@@H]12 (stereo partly drawn) [C17] : < 6.00

###

# Test system: 22Rv1 cells
# test-details: Anti-proliferative toxicity against prostate cancer cell line 22Rv1 (CCK8)
# Format: cell-based, human
# condition-details: 0.00800 μM, 3 days
// reported Anti-proliferative toxicity data in 22Rv1 cells per item
Give your result in % as a bare value.

compound: C[C@]12C=CC(=O)N[C@@H]1CC[C@@H]1[C@@H]2CC[C@]2(C)[C@@H](C(=O)Nc3cccc(OCCCNc4cccc5c4C(=O)N(C4CCC(=O)NC4=O)C5=O)c3)CC[C@@H]12 (stereo partly shown) [C29]
unit-spec: %
test-value: 64.2

compound: C[C@]12C=CC(=O)N[C@@H]1CC[C@@H]1[C@@H]2CC[C@]2(C)[C@@H](C(=O)Nc3cccc(N[C@@H]4CCC[C@@H](Nc5cccc6c5C(=O)N(C5CCC(=O)NC5=O)C6=O)C4)c3)CC[C@@H]12 (stereo partly shown) [C59]
unit-spec: %
test-value: 81.1

Measured Anti-proliferative toxicity data in 22Rv1 cells of C[C@]12C=CC(=O)N[C@@H]1CC[C@@H]1[C@@H]2CC[C@]2(C)[C@@H](C(=O)Nc3cccc(NCCCNc4cccc5c4C(=O)N(C4CCC(=O)NC4=O)C5=O)c3)CC[C@@H]12 (stereo partly shown) [C50] : 80.7

Measured Anti-proliferative toxicity data in 22Rv1 cells of C[C@]12C=CC(=O)N[C@@H]1CC[C@@H]1[C@@H]2CC[C@]2(C)[C@@H](C(=O)Nc3cccc(N[C@@H]4CCC[C@@H](Nc5cccc6c5C(=O)N([C@H]5CCC(=O)NC5=O)C6=O)C4)c3)CC[C@@H]12 [C63] : 86.5

###

# System: VCaP cells
# test-details: Anti-proliferative toxicity against prostate cancer cell line Vcap (CCK8)
# Type: cell-based, human
# condition-details: Homo sapiens, 72 h, 3 days, CCK8
measurement-label: IC50

Solved cases (3 shown):
compound: C[C@]12C=CC(=O)N[C@@H]1CC[C@@H]1[C@@H]2CC[C@]2(C)[C@@H](C(=O)Nc3cccc(N[C@H]4CCC[C@H](Nc5cccc6c5C(=O)N(C5CCC(=O)NC5=O)C6=O)C4)c3)CC[C@@H]12 (stereo partly drawn)
IC50: 10 to 1000 nM

compound: C[C@]12C=CC(=O)N[C@@H]1CC[C@@H]1[C@@H]2CC[C@]2(C)[C@@H](C(=O)NCCCNc3cccc4c3C(=O)N(C3CCC(=O)NC3=O)C4=O)CC[C@@H]12 (stereo partly drawn)
IC50: > 1000 nM

compound: C[C@]12C=CC(=O)N[C@@H]1CC[C@@H]1[C@@H]2CC[C@]2(C)[C@@H](C(=O)Nc3cccc(NCCCNc4cccc5c4C(=O)N(C4CCC(=O)NC4=O)C5=O)c3)CC[C@@H]12 (stereo partly drawn)
IC50: 0.1 to 10 nM

We next turn to a different compound, shown below.
Measured IC50 of C[C@]12C=CC(=O)N[C@@H]1CC[C@@H]1[C@@H]2CC[C@]2(C)[C@@H](C(=O)NCCNc3cccc4c3C(=O)N(C3CCC(=O)NC3=O)C4=O)CC[C@@H]12 (stereo partly drawn) : > 1000 nM

###

// reported Anti-proliferative toxicity data in 22Rv1 cells per item
# Test system: 22Rv1 cells
# test-details: Anti-proliferative toxicity against prostate cancer cell line 22Rv1 (CCK8)
# Format: cell-based, human
# condition-details: 0.00032 μM, 3 days
Give your result in % as a bare value.

Solved cases (3 shown):
compound: C[C@]12C=CC(=O)N[C@@H]1CC[C@@H]1[C@@H]2CC[C@]2(C)[C@@H](C(=O)Nc3cccc(NCCCNc4cccc5c4C(=O)N(C4CCC(=O)NC4=O)C5=O)c3)CC[C@@H]12 (stereo partly shown)
unit-spec: %
test-value: 45.2
--
compound: C[C@]12C=CC(=O)N[C@@H]1CC[C@@H]1[C@@H]2CC[C@]2(C)[C@@H](C(=O)Nc3cccc(OCCCNc4cccc5c4C(=O)N(C4CCC(=O)NC4=O)C5=O)c3)CC[C@@H]12 (stereo partly shown)
unit-spec: %
test-value: 5.6
--
compound: C[C@]12C=CC(=O)N[C@@H]1CC[C@@H]1[C@@H]2CC[C@]2(C)[C@@H](C(=O)Nc3cccc(N[C@@H]4CCC[C@@H](Nc5cccc6c5C(=O)N([C@H]5CCC(=O)NC5=O)C6=O)C4)c3)CC[C@@H]12
unit-spec: %
test-value: 76.5

We next turn to a different compound, shown below.
Measured Anti-proliferative toxicity data in 22Rv1 cells of C[C@]12C=CC(=O)N[C@@H]1CC[C@@H]1[C@@H]2CC[C@]2(C)[C@@H](C(=O)Nc3cccc(N[C@@H]4CCC[C@@H](Nc5cccc6c5C(=O)N(C5CCC(=O)NC5=O)C6=O)C4)c3)CC[C@@H]12 (stereo partly shown) : 79.6
